run_description: in vitro
conditions_used: mouse, ScN2a cells, pH 7.4, cell survival rate
Ends that are not written are not given here.
measured_parameter: viability

Need viability, item RRRRRRRRRRRRGSGGFKFEFKFEFKFE-NH2 [Example 3]
≥ 70%
